- Assay name: qHTS of pediatric cancer cell lines to identify multiple opportunities for drug repurposing: Primary screen for BT-12 cells (AID 1347101); also: nearly all actives have a fitted effect of over 25% in size
- Particulars: BT-12 viability, CellTiter-Glo luminescence, 48 h; series mostly up to 57.3 µM
- Description: Drug repurposing or repositioning has been offered as a strategy for drug development in oncology programs. […] [1] Shen, M et al. Quantitative high-throughput phenotypic screening of pediatric cancer cell lines identifies multiple opportunities for drug repurposing. […] Cells were assayed in growth media at a density of 500-1,000 cells/well. […] After a 15 min incubation at room temperature, samples were analyzed for luminescence intensity using a ViewLux High-throughput CCD imager equipped with clear filters.
Results filed as inconclusive are left out. Calls of active or inactive are those of the source. Calls follow the shape of the dose curve; as a rule, active = well fitted cell-killing curve with a large enough effect; inconclusive = small, poorly fitted or top-dose-only effect; inactive = flat fitted curve, though single readings scatter.
Hi there, use one of these labels in your reply, thanks! 1 (active), 0 (inactive)

Worked examples, 6 compounds total:
{"Compound": "NC(=O)c1cc[n+](CC2=C(C(=O)[O-])N3C(=O)[C@@H](NC(=O)Cc4cccs4)[C@H]3SC2)cc1", "Cat": 0}
{"Compound": "CC(=O)OCC(=O)[C@@]1(O)CC[C@H]2[C@@H]3CCC4=CC(=O)C=C[C@]4(C)[C@H]3[C@@H](O)C[C@@]21C", "Cat": 0}
{"Compound": "CCCCC1=NC2(CCCC2)C(=O)N1Cc1ccc(-c2ccccc2-c2nn[nH]n2)cc1", "Cat": 0}
{"Compound": "Oc1c(Cl)cc(Cl)cc1Sc1cc(Cl)cc(Cl)c1O", "Cat": 0}
{"Compound": "COc1cccc2c1C(=O)c1c(O)c3c(c(O)c1C2=O)C[C@@](O)(C(C)=O)C[C@@H]3O[C@H]1C[C@H](N)[C@H](O)[C@H](C)O1", "Cat": 1}
{"Compound": "CCC(=O)c1c(O)cc(O)cc1O", "Cat": 0}

Q: Could you check what this test reported for Nc1ccc(C(=O)O)cc1 ?
A: 0

The reported measurements were obtained from PubChem BioAssay (NCATS).
